Form field: DC50 (one value per entry).
- targetOrTestSystem: CK1α (Homo sapiens, UniProt P48729+Q96SW2)
- Construct: expressed in transfected cells
- Sequence (P48729 whole entry): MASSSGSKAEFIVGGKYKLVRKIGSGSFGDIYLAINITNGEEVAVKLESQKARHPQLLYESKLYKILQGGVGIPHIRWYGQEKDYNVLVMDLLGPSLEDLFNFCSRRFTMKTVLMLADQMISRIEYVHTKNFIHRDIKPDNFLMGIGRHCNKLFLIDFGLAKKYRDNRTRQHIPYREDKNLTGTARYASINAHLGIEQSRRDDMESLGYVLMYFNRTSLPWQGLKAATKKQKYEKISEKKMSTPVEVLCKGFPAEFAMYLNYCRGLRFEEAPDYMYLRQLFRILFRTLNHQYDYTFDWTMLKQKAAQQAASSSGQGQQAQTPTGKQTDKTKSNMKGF
- Sequence (Q96SW2 whole entry): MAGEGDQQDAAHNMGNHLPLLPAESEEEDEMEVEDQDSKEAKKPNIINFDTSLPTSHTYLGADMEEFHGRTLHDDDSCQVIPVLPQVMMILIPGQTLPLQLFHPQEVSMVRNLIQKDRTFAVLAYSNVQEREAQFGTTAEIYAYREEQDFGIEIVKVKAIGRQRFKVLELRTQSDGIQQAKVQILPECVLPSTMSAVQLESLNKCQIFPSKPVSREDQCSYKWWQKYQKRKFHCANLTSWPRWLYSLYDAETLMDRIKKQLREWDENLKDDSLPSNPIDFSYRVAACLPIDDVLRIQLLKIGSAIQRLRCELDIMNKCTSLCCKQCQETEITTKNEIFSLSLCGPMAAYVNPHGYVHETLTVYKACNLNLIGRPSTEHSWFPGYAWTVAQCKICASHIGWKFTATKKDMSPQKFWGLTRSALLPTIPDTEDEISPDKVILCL
- Sequence (Q16531 whole entry partner): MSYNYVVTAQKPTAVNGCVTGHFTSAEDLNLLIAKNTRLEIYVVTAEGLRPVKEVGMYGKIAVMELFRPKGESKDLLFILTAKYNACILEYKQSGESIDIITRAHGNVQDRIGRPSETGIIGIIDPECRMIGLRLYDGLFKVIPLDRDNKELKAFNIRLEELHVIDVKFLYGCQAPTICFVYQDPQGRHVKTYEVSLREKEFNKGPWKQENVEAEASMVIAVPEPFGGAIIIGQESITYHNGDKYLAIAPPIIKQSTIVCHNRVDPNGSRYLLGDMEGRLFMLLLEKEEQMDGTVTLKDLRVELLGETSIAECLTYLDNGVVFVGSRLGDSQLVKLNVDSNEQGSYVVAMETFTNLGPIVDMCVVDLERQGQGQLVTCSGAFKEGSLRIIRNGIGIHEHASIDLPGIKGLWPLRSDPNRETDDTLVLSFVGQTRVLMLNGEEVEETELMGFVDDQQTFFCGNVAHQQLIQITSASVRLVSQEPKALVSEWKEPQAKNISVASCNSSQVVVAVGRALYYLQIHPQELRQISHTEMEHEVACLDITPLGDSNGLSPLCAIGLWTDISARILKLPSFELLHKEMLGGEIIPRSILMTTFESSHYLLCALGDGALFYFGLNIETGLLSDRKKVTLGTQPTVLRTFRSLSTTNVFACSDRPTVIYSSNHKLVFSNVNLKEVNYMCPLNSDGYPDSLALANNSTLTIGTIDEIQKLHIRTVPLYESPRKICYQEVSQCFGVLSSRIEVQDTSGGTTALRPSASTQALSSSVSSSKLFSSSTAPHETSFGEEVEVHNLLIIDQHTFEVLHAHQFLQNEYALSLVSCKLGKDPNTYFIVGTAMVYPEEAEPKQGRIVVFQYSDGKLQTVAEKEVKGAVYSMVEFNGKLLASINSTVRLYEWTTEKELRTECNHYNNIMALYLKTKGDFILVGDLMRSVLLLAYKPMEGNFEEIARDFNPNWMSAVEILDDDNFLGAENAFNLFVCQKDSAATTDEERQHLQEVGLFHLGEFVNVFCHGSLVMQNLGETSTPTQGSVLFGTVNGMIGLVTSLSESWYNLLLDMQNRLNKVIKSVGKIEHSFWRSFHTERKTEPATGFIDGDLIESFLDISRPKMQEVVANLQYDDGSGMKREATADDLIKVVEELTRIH
- measurementProtocol: CK1α ePL degradation assay in MDS-L cells
- Format: cell-based
- experimentalSetup: concentration giving 50% CK1α degradation vs DMSO control; MDS-L cells expressing ePL-tagged CK1α

# example entries with known answers
molecule: O=C1CCC(N2Cc3cc(C(=O)N[C@H](c4ncccc4F)C(F)(F)F)ccc3C2=O)C(=O)N1 (stereo partly shown)
DC50: < 100 nM

molecule: CC(C)([C@@H](NC(=O)c1ccc2c(c1)CN(C1CCC(=O)NC1=O)C2=O)C(F)(F)F)C(F)(F)F (stereo partly shown)
DC50: 100 to 500 nM

molecule: CN1CCC([C@@H](NC(=O)c2ccc3c(c2)CN(C2CCC(=O)NC2=O)C3=O)C(F)(F)F)CC1 (stereo partly shown)
DC50: 500 to 1000 nM

molecule: N#Cc1cccc([C@@H](NC(=O)c2ccc3c(c2)CN(C2CCC(=O)NC2=O)C3=O)C(F)(F)F)c1 (stereo partly shown)
DC50: < 100 nM

molecule: Cn1ccc([C@@H](NC(=O)c2ccc3c(c2)CN(C2CCC(=O)NC2=O)C3=O)C(F)(F)F)n1 (stereo partly shown)
DC50: 500 to 1000 nM

query: // DC50 lookup, key: CC(C)(CO)[C@@H](NC(=O)c1ccc2c(c1)CN(C1CCC(=O)NC1=O)C2=O)C(F)(F)F (stereo partly shown)
result: 500 to 1000 nM

query: // DC50 lookup, key: O=C1CC[C@H](N2Cc3cc(C(=O)N[C@H](c4ccccc4)C(F)(F)F)ccc3C2=O)C(=O)N1
result: < 100 nM

###

- targetOrTestSystem: CK1α (Homo sapiens, UniProt P48729+Q96SW2)
- Construct: expressed in transfected cells
- measurementProtocol: CK1α ePL degradation assay in MDS-L cells
- Type: cell-based
- experimentalSetup: concentration giving 50% CK1α degradation vs DMSO control; MDS-L cells expressing ePL-tagged CK1α
Form field: DC50 (one value per entry).

# example entries with known answers
molecule: O=C1CC[C@H](N2Cc3cc(C(=O)N[C@H](c4ncc(Cl)cc4F)C(F)(F)F)ccc3C2=O)C(=O)N1
targetOrTestSystem: CK1α (Homo sapiens, UniProt P48729+Q96SW2)
DC50: < 100 nM
--
molecule: O=C1CCC(N2Cc3cc(C(=O)N[C@H](C4CCCCC4)C(F)(F)F)ccc3C2=O)C(=O)N1 (stereo partly drawn)
targetOrTestSystem: CK1α (Homo sapiens, UniProt P48729+Q96SW2)
DC50: < 100 nM
--
molecule: O=C1CCC(N2Cc3cc(C(=O)N[C@@H](C(F)(F)F)C4(C(F)(F)F)CC4)ccc3C2=O)C(=O)N1 (stereo partly drawn)
targetOrTestSystem: CK1α (Homo sapiens, UniProt P48729+Q96SW2)
DC50: 100 to 500 nM
--
molecule: CN(C)Cc1ccc([C@@H](NC(=O)c2ccc3c(c2)CN(C2CCC(=O)NC2=O)C3=O)C(F)(F)F)c(Cl)c1 (stereo partly drawn)
targetOrTestSystem: CK1α (Homo sapiens, UniProt P48729+Q96SW2)
DC50: < 100 nM
--
molecule: C[C@H](NC(=O)c1ccc2c(c1)CN(C1CCC(=O)NC1=O)C2=O)c1ccccn1 (stereo partly drawn)
targetOrTestSystem: CK1α (Homo sapiens, UniProt P48729+Q96SW2)
DC50: 100 to 500 nM
--
molecule: O=C1CCC(N2Cc3cc(C(=O)N[C@H](c4ncc(F)cc4F)C(F)(F)F)ccc3C2=O)C(=O)N1 (stereo partly drawn)
targetOrTestSystem: CK1α (Homo sapiens, UniProt P48729+Q96SW2)
DC50: < 100 nM

query: // DC50 lookup, key: O=C1CCC(N2Cc3c(ccc(C(=O)N[C@H](c4ccccc4C(F)(F)F)C(F)(F)F)c3F)C2=O)C(=O)N1 (stereo partly drawn)
result: < 100 nM

query: // DC50 lookup, key: O=C1CCC(N2Cc3cc(C(=O)N[C@H](c4cccc(Oc5ccccc5)c4)C(F)(F)F)ccc3C2=O)C(=O)N1 (stereo partly drawn)
result: < 100 nM

###

- targetOrTestSystem: CK1α (Homo sapiens, UniProt P48729+Q96SW2)
- Construct: expressed in transfected cells
- measurementProtocol: CK1α ePL degradation assay in MDS-L cells
- Assay type: cell-based
- experimentalSetup: concentration giving 50% CK1α degradation vs DMSO control; MDS-L cells expressing ePL-tagged CK1α
readout: DC50

molecule: O=C1CCC(N2Cc3c(ccc(C(=O)N[C@H](c4ncccc4Cl)C(F)(F)F)c3F)C2=O)C(=O)N1 (some centres unmarked) [Example 139]
DC50: < 100 nM

query: // DC50 lookup, key: O=C1CCC(N2Cc3cc(C(=O)N[C@H](c4cccc(OC(F)(F)F)c4)C(F)(F)F)ccc3C2=O)C(=O)N1 (some centres unmarked) [Example 58]
result: < 100 nM

query: // DC50 lookup, key: C[C@]1(O)CC[C@H]([C@@H](NC(=O)c2ccc3c(c2)CN(C2CCC(=O)NC2=O)C3=O)C(F)(F)F)CC1 (some centres unmarked) [Example 156]
result: 100 to 500 nM

query: // DC50 lookup, key: O=C1CCC(N2Cc3cc(C(=O)N[C@H](CC(F)(F)F)c4cccc(Cl)c4)ccc3C2=O)C(=O)N1 (some centres unmarked) [Example 194]
result: < 100 nM

query: // DC50 lookup, key: CC(C)(C)[C@@H](NC(=O)c1ccc2c(c1)CN(C1CCC(=O)NC1=O)C2=O)C(F)(F)F (some centres unmarked) [Example 34]
result: 100 to 500 nM

query: // DC50 lookup, key: CN(C)Cc1ccccc1[C@@H](NC(=O)c1ccc2c(c1)CN(C1CCC(=O)NC1=O)C2=O)C(F)(F)F (some centres unmarked) [Example 192]
result: < 100 nM

query: // DC50 lookup, key: C[C@]1(O)CC[C@@H]([C@@H](NC(=O)c2ccc3c(c2)CN(C2CCC(=O)NC2=O)C3=O)C(F)(F)F)CC1 (some centres unmarked) [Example 168]
result: < 100 nM

query: // DC50 lookup, key: O=C1CCC(N2Cc3cc(C(=O)N[C@H](CC(F)(F)F)c4ccccc4F)ccc3C2=O)C(=O)N1 (some centres unmarked) [Example 195]
result: < 100 nM

###

Form field: DC50 (one value per entry).
- targetOrTestSystem: CK1α (Homo sapiens, UniProt P48729+Q96SW2)
- Construct: expressed in transfected cells
- measurementProtocol: CK1α ePL degradation assay in MDS-L cells
- Type: cell-based
- experimentalSetup: concentration giving 50% CK1α degradation vs DMSO control; MDS-L cells expressing ePL-tagged CK1α

# example entries with known answers
molecule: O=C1CCC(N2Cc3cc(C(=O)N[C@H](c4cccnc4)C(F)(F)F)ccc3C2=O)C(=O)N1 (stereo partly shown)
result: 100 to 500 nM

molecule: CN1CCN(c2cccc([C@@H](NC(=O)c3ccc4c(c3)CN(C3CCC(=O)NC3=O)C4=O)C(F)(F)F)c2)CC1 (stereo partly shown)
result: 100 to 500 nM

molecule: COc1ccccc1[C@@H](NC(=O)c1ccc2c(c1)CN(C1CCC(=O)NC1=O)C2=O)C(F)(F)F (stereo partly shown)
result: < 100 nM

molecule: C[C@H](NC(=O)c1ccc2c(c1)CN(C1CCC(=O)NC1=O)C2=O)c1ccc(F)cc1F (stereo partly shown)
result: < 100 nM

molecule: O=C1CCC(N2Cc3cc(C(=O)N[C@H](c4c(F)cccc4Cl)C(F)(F)F)ccc3C2=O)C(=O)N1 (stereo partly shown)
result: < 100 nM

molecule: N#Cc1ccc([C@@H](NC(=O)c2ccc3c(c2)CN(C2CCC(=O)NC2=O)C3=O)C(F)(F)F)cc1 (stereo partly shown)
result: < 100 nM

molecule: CC(C)[C@H](C)NC(=O)c1ccc2c(c1)CN(C1CCC(=O)NC1=O)C2=O (stereo partly shown)
result: 100 to 500 nM

molecule: O=C1CCC(N2Cc3cc(C(=O)N[C@H](c4ccc(C(F)(F)F)cn4)C(F)(F)F)ccc3C2=O)C(=O)N1 (stereo partly shown)
result: < 100 nM

query: // DC50 lookup, key: O=C1CCC(N2Cc3c(ccc(C(=O)N[C@H](c4cccc(F)c4)C(F)(F)F)c3F)C2=O)C(=O)N1 (stereo partly shown)
result: 100 to 500 nM

query: // DC50 lookup, key: O=C1CCC(N2Cc3cc(C(=O)N[C@H](c4ncccc4Cl)C(F)(F)F)ccc3C2=O)C(=O)N1 (stereo partly shown)
result: < 100 nM

query: // DC50 lookup, key: O=C1CCC(N2Cc3cc(C(=O)N[C@H](c4ccccc4)C(F)(F)F)c(F)cc3C2=O)C(=O)N1 (stereo partly shown)
result: 100 to 500 nM

// provenance: patent US11306101B2
